Origin of measurements: ChEMBL document CHEMBL4725392

Test: Cmax in rat at 10 mg/kg, po
Assay type: ADME, organism-based
Parameters: route oral, dose 10 mg/kg
Details: in vivo

- Compound String: "COC[C@](CO)(OC[C@H]1O[C@@H](n2ncc3c(NC4CCCC4)nc(Cl)nc32)[C@H](O)[C@@H]1O)P(=O)(O)O"
  Unit Descriptor: "nM"
  Cmax: 820

###

Experiment: Terminal half life in dog at 0.2 mg/kg, iv
Type: ADME, organism-based, Canis lupus familiaris
Details: in vivo, read-out: beta t1/2 (converted)

- Compound String: "COC[C@](CO)(OC[C@H]1O[C@@H](n2ncc3c(NC4CCCC4)nc(Cl)nc32)[C@H](O)[C@@H]1O)P(=O)(O)O"
  Unit Descriptor: "min"
  half-life: 49.2
